- assaySystem: EGFR (Homo sapiens)
- Construct: host or cells: A431
- Sequence (P00533 25-1210): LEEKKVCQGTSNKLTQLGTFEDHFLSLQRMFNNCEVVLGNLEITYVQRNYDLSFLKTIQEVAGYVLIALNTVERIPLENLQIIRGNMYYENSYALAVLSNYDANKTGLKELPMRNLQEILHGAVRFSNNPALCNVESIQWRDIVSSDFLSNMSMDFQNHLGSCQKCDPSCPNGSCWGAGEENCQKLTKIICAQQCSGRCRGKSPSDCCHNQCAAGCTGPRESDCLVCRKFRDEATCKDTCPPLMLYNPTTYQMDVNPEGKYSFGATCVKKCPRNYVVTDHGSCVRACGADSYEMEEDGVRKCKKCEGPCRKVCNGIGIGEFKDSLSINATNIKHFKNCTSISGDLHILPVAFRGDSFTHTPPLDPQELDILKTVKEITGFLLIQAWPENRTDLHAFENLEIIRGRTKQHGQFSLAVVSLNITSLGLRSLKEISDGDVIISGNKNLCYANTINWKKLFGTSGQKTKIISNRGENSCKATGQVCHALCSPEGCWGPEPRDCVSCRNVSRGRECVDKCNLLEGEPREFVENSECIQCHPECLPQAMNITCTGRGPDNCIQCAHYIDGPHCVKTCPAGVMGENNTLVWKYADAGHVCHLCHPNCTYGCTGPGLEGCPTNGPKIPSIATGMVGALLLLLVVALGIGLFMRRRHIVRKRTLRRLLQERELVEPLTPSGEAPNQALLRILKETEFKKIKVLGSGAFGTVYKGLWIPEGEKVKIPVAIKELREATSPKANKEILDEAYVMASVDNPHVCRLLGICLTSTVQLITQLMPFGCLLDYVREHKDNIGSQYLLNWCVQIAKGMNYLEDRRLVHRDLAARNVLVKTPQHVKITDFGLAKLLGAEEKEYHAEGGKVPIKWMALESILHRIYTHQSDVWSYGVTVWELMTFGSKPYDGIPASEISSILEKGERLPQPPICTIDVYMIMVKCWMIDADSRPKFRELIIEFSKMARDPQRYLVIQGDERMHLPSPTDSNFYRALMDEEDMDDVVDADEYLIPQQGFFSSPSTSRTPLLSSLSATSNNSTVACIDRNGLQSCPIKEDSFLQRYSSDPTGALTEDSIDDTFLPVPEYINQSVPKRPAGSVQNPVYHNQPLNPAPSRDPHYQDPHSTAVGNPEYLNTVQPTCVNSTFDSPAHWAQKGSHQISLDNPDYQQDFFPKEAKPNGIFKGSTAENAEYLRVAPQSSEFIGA
- protocol: EGFR in-cell Western (ICW) screening protocol (EGFR inhibition assay)
- Format: cell-based
- Set-up: unit not given here
- reportedConditions: ICW assay, average of runs 1 and 2
Structures can show the parent of a compound that is named as a salt.
Outcome: condition met for ICW Avg of at least 40; condition not met for anything lower.

Query: Does the compound CCc1ccc2nc(Nc3nc(-c4cccc(OC)c4)cc(=O)[nH]3)nc(C)c2c1 have recorded ICW Avg that is 40 or more?
Result: condition not met

Query: Does the compound COc1ccc2c(C)nc(Nc3nc(C)cc(-c4ccccc4)n3)nc2c1 have recorded ICW Avg that is 40 or more?
Result: condition not met

Query: Does the compound COC(=O)Cc1cc(=O)nc(Nc2nc(C)c3ccccc3n2)[nH]1 have recorded ICW Avg that is 40 or more?
Result: condition not met

Query: Does the compound Cc1nc(Nc2nc(=O)c3c([nH]2)CCCC3)nc2c(C)cccc12 [11436 + TFA] have recorded ICW Avg that is 40 or more?
Result: condition met

Query: Does the compound CCc1ccc2nc(Nc3nc(C)c(CCC(C)C)c(=O)[nH]3)nc(C)c2c1 have recorded ICW Avg that is 40 or more?
Result: condition met

Query: Does the compound CCCc1c(C)[nH]c(Nc2nc(C)c3cc(C)ccc3n2)nc1=O have recorded ICW Avg that is 40 or more?
Result: condition not met

Query: Does the compound Cc1ccc2nc(Nc3nc(=O)c(C)c(C)[nH]3)nc(C)c2c1 [12629 + TFA] have recorded ICW Avg that is 40 or more?
Result: condition not met

Query: Does the compound CCCc1cc(=O)[nH]c(Nc2nc(C)c3cc(C)c(C)cc3n2)n1 [12654 + TFA] have recorded ICW Avg that is 40 or more?
Result: condition not met

Query: Does the compound Cc1ccc2c(C)nc(Nc3nc(CCC(C)C)cc(=O)[nH]3)nc2c1 [11783 + TFA] have recorded ICW Avg that is 40 or more?
Result: condition met

* * *

Assignment: determine reported ICW Avg for the given compounds.
- assaySystem: EGFR (Homo sapiens)
- Construct: host or cells: A431
- protocol: EGFR in-cell Western (ICW) screening protocol (EGFR inhibition assay)
- Format: cell-based
- Design: unit not given here
- reportedConditions: ICW assay, average of runs 1 and 2
Counter-ions that a name gives are not always drawn.
API doc: respond with a numeric literal and nothing else, no unit.

Query: Could you tell me which ICW Avg is on file for CCCCCc1c(C)nc(Nc2nc(C)c3cc(CC)ccc3n2)[nH]c1=O [12226 + TFA] ?
Result: 38.74

Query: Could you tell me which ICW Avg is on file for COc1cccc2c(C)nc(Nc3nc(C)cc(=O)[nH]3)nc12 [11772 + TFA] ?
Result: 77.09

Query: Could you tell me which ICW Avg is on file for COc1cccc2c(C)nc(Nc3nc(C(F)(F)F)cc(=O)[nH]3)nc12 [compound 11758] ?
Result: 47.78

Query: Could you tell me which ICW Avg is on file for Cc1ccc2nc(Nc3nc(=O)c(Cc4ccccc4)c(C)[nH]3)nc(C)c2c1 [compound 11294] ?
Result: 33.47

Query: Could you tell me which ICW Avg is on file for CCCCCc1c(C)nc(Nc2nc(C)c3ccc(C)cc3n2)[nH]c1=O [11730 + TFA] ?
Result: 38.91

Query: Could you tell me which ICW Avg is on file for Cc1ccc2nc(Nc3nc4c(c(-c5ccccc5)n3)CCCC4)nc(C)c2c1 [compound 12227] ?
Result: 27.27

Query: Could you tell me which ICW Avg is on file for Cc1ccc2nc(Nc3nc(CSc4nc5ccccc5s4)cc(=O)[nH]3)nc(C)c2c1 [compound 11592] ?
Result: 29.16

Query: Could you tell me which ICW Avg is on file for Cc1ccc2nc(Nc3nc(CSc4ncccn4)cc(=O)[nH]3)nc(C)c2c1 [compound 11751] ?
Result: 25.51

Query: Could you tell me which ICW Avg is on file for CCc1c(C)nc(Nc2nc(C)c3cccc(OC)c3n2)[nH]c1=O [12738 + TFA] ?
Result: 45.35
